assay-overview: Metabolic stability test in liver microsomes (rat)
Format: in vitro ADME
study-conditions: percentage of remaining compound after incubation for 30 minutes vs 0 minute; 1 μM compound; 0.5 mg/mL liver microsomes; 37° C.
reported-endpoint: Rat liver microsome stability (%)

Completed entries (count: 10):
>>> assay_value("C[C@@H](Nc1nc(N[C@H](C)C(F)(F)F)nc(C2=C(F)C(O)CCC2)n1)C(F)(F)F (mixture of isomers)")
99.0
>>> assay_value("CC(C)Nc1nc(N[C@H](C)C(F)(F)F)nc(C2=C(F)C(O)C(F)CC2)n1 (single isomer, unassigned)")
74.8
>>> assay_value("C[C@@H](Nc1nc(NC2CCC(F)(F)C2)nc(C2=CC(O)CCC2)n1)C(F)(F)F (mixture of isomers)")
45.9
>>> assay_value("[2H]C1([2H])CCC(c2nc(N[C@H](C)C(F)(F)F)nc(N[C@H](C)C(F)(F)F)n2)=C(F)C1([2H])O (mixture of isomers)")
96.6
>>> assay_value("CC(C)Nc1nc(N[C@H](C)C(F)(F)F)nc(C2=CC(O)CCC2)n1 (mixture of isomers)")
74.1
>>> assay_value("OC1C(F)=C(c2nc(NC3CC(F)(F)C3)nc(NC3CC(F)(F)C3)n2)CCC1F (single isomer, unassigned) [Compound 202]")
94.2
>>> assay_value("OC1C(F)=C(c2nc(NC3CC(F)(F)C3)nc(NC3CC(F)(F)C3)n2)CCC1(F)F (stereo not drawn)")
92.1
>>> assay_value("[2H]C1([2H])CCC(c2nc(N[C@@H](C)C(F)(F)F)nc(N[C@@H](C)C(F)(F)F)n2)=C(F)C1O (stereo partly drawn)")
97.9
>>> assay_value("C[C@@H](Nc1nc(N[C@H](C)C(F)(F)F)nc(C2=C(F)C(O)C(F)CC2)n1)C(F)(F)F (single isomer, unassigned) [Compound 97]")
98.5
>>> assay_value("C[C@@H](Nc1nc(N[C@@H]2CCC(F)(F)C2)nc(C2=C(F)C(O)C(F)(F)CC2)n1)C(F)(F)F (mixture of isomers)")
89.0

[1] [2H]C1([2H])CCC(c2nc(NC3CC(F)(F)C3)nc(NC3CC(F)(F)C3)n2)=C(F)C1O (stereo not drawn)
[2] C[C@@H](Nc1nc(NC2CCC2)nc(C2=CC(O)CCC2)n1)C(F)(F)F (mixture of isomers)
Q: Which value of Rat liver microsome stability is smaller, the one for 1 or the one for 2 ? Choose, then provide that item's label.
A: 2

###

target: IDH1-R132H (Homo sapiens, UniProt O75874, R132H)
Sequence (O75874 whole entry R132H): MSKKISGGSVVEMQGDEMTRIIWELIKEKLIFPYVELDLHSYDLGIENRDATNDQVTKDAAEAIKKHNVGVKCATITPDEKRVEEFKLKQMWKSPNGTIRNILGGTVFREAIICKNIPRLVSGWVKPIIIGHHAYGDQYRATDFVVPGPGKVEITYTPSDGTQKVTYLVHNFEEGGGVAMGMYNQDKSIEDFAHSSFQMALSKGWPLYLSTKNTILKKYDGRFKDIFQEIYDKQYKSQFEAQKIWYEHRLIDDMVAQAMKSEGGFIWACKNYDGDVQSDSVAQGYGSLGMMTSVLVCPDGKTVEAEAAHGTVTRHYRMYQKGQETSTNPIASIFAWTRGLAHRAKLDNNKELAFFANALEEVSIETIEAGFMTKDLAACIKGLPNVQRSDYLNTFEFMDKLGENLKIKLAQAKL
assay-overview: Fluorescent determination of IDH1-R132H cell activity (2-HG in U87MGR132H cells)
study-conditions: 2-HG inhibition in U87MGR132H cells transfected with IDH1-R132H mutant plasmid
reported-endpoint: IC50 (nM)

Reference set (2 entries):
>>> assay_value("C[C@@H](Nc1nc(NC2CCC2)nc(C2=C(F)C(O)CCC2)n1)C(F)(F)F (mixture of isomers)")
1500
>>> assay_value("OC1CCCC(c2nc(NCC(F)(F)F)nc(NC3CC(F)(F)C3)n2)=C1F (stereo not shown)")
2060

[a] C[C@@H](Nc1nc(N[C@H](C)C(F)(F)F)nc(C2=C(F)C(O)C(Cl)CC2)n1)C(F)(F)F (mixture of isomers)
[b] [2H]C([2H])([2H])C([2H])(Nc1nc(N[C@H](C)C(F)(F)F)nc(C2=C(F)C(O)CCC2)n1)C([2H])([2H])[2H] (stereo partly shown)
[c] [2H]C1(O)C(F)=C(c2nc(NC3CC3)nc(N[C@H](C)C(F)(F)F)n2)CCC1(F)F (mixture of isomers)
Q: Could you please order the items by IC50, going from the lowest number to the highest? Put the labels in the requested order and write them down.
A: a, b, c

###

target: IDH1-R132H (Homo sapiens, UniProt O75874, R132H)
assay-overview: Fluorescent determination of IDH1-R132H cell activity (2-HG in U87MGR132H cells)
study-conditions: 2-HG inhibition in U87MGR132H cells transfected with IDH1-R132H mutant plasmid
pIC50: −log10 of the molar value.
reported-endpoint: pIC50

>>> assay_value("[2H]C1(O)C(F)=C(c2nc(N[C@H](C)C(F)(F)F)nc(N[C@H](C)C(F)(F)F)n2)CCC1(F)F (mixture of isomers)")
6.76
>>> assay_value("CCC(Nc1nc(N[C@H](C)C(F)(F)F)nc(C2=C(F)C(O)CCC2)n1)C(F)(F)F (mixture of isomers)")
6.21
>>> assay_value("C[C@@H](Nc1nc(N[C@H](C)C(F)(F)F)nc(C2=C(F)C(O)C(F)CC2)n1)C(F)(F)F (stereo partly shown) [Compound 267]")
5.45

[a] C[C@@H](Nc1nc(NC2CCC(F)(F)C2)nc(C2=C(F)C(O)CCC2)n1)C(F)(F)F (mixture of isomers)
[b] C[C@@H](Nc1nc(NC2CC3(CCC3)C2)nc(C2=C(F)C(O)CCC2)n1)C(F)(F)F (mixture of isomers)
[c] CC(C)Nc1nc(Nc2ccnc(F)c2)nc(C2=C(F)C(O)CCC2)n1 (stereo not shown)
Q: Kindly order the items shown according to pIC50, from the highest value down. Lab note: final answer is the ordered label list.
A: a, b, c
(a: 6.17, b: 5.57, c: 5.13)

###

target: IDH1-R132H (Homo sapiens, UniProt O75874, R132H)
assay-overview: Fluorescent determination of IDH1-R132H cell activity (2-HG in U87MGR132H cells)
study-conditions: 2-HG inhibition in U87MGR132H cells transfected with IDH1-R132H mutant plasmid
pIC50: −log10 of the molar value.
reported-endpoint: pIC50

The following compounds have reported results that may help.
>>> assay_value("C[C@@H](Nc1nc(NC2CCCC2(F)F)nc(C2=C(F)C(O)CCC2)n1)C(F)(F)F (mixture of isomers)")
5.87
>>> assay_value("C[C@@H](Nc1nc(NC2CC(F)(F)C2)nc(C2=C(F)C(O)C(F)(F)CC2)n1)C(F)(F)F (some centres unmarked)")
6.67
>>> assay_value("C[C@@H](Nc1nc(NCC2CCC2(F)F)nc(C2=C(F)C(O)CCC2)n1)C(F)(F)F (mixture of isomers)")
5.80
>>> assay_value("[2H]C1([2H])CCC(c2nc(NC3CC(F)(F)C3)nc(NC3CC(F)(F)C3)n2)=C(F)C1O (centres unmarked)")
6.68
>>> assay_value("CC(C)Nc1nc(N[C@H](C)C(F)(F)F)nc(C2=C(F)C(O)C(F)(F)CC2)n1 (some centres unmarked) [Compound 244]")
5.97

[a] C[C@@H](Nc1nc(N[C@H](C)C(F)(F)F)nc(C2=C(F)C(O)C(F)(F)CC2)n1)C(F)(F)F (mixture of isomers) [Compound 196]
[b] OC1C(F)=C(c2nc(NC3CC(F)(F)C3)nc(NC3CC(F)(F)C3)n2)CCC1F (single isomer, unassigned) [Compound 202]
[c] CC(C)Nc1nc(N[C@H](C)C(F)(F)F)nc(C2=C(F)C(O)C(F)CC2)n1 (single isomer, unassigned) [Compound 96]
Q: List these items ordered by pIC50, big to small. Your task in answering is to list the labels in the requested order.
A: a, b, c

[A] C[C@@H](Nc1nc(N[C@H](C)C(F)(F)F)nc(C2=C(F)C(O)CCC2)n1)C(F)(F)F (some centres unmarked) [Compound 83]
[B] C[C@H](Nc1nc(N[C@H](C)C(F)(F)F)nc(C2=C(F)C(O)CCC2)n1)C(F)(F)F (mixture of isomers)
Q: Between the entries labelled A and B , which has a larger pIC50 value on record? Answer = label.
A: A

[1] [2H]C1(O)CCCCC(c2nc(NC3CC(F)(F)C3)nc(N[C@H](C)C(F)(F)F)n2)=C1F (mixture of isomers)
[2] C[C@@H](Nc1nc(N[C@H](C)C(F)(F)F)nc(C2=C(F)C(O)C(F)(F)CC2)n1)C(F)(F)F (single isomer, unassigned) [Compound 197]
Q: When the recorded pIC50 values are compared, which is smaller: that of 1 or that of 2 ? Respond using the label that marks the chosen record.
A: 1

###

target: IDH1-R132H (Homo sapiens, UniProt O75874, R132H)
assay-overview: Fluorescent determination of IDH1-R132H cell activity (2-HG in U87MGR132H cells)
study-conditions: 2-HG inhibition in U87MGR132H cells transfected with IDH1-R132H mutant plasmid
reported-endpoint: IC50 (nM)

>>> assay_value("C[C@@H](Nc1nc(N[C@@H]2CCC(F)(F)C2)nc(C2=C(F)C(O)C(F)(F)CC2)n1)C(F)(F)F (mixture of isomers)")
246
>>> assay_value("C[C@@H](Nc1nc(N[C@H](C)C(F)(F)F)c(F)c(C2=CC(O)CCC2)n1)C(F)(F)F (mixture of isomers)")
1510
>>> assay_value("C[C@@H](Nc1nc(NCC(F)(F)F)nc(C2=C(F)C(O)CCC2)n1)C(F)(F)F (stereo partly shown)")
1300
>>> assay_value("C[C@@H](Nc1nc(NCC2CC2)nc(C2=C(F)C(O)C(F)CC2)n1)C(F)(F)F (single isomer, unassigned) [Compound 226]")
5120

[P] OC1C=C(c2nc(NC3CC(F)(F)C3)nc(NC3CC(F)(F)C3)n2)CCC1 (stereo not shown)
[Q] CCCNc1nc(N[C@H](C)C(F)(F)F)nc(C2=C(F)C(O)C(F)(F)CC2)n1 (mixture of isomers)
Q: Returns: the argument ( P or Q ) having the larger IC50. Pick one and reply with its label.
A: Q
(Q: 4340 nM, P: 203 nM)
